target: Cellular tumor antigen p53 (Homo sapiens); assay: TOX21_p53_BLA_p4_ratio: Tox21 HCT-116 p53 Agonism Beta-lactamase Assay, Ratio, Phase 4 (AID 2283601)
Inconclusive results are not listed. Activity calls are given as the source filed them. Rule for the calls: active = hit-call score of the fitted dose curve at least 0.9, where 1 is the maximum; inconclusive = response in the unintended direction; inactive = score below 0.9.
Outcome codes: active, inactive

| compound | label_value |
| --- | --- |
| Cc1cccc(Br)c1 | inactive |
| CN(C)CCc1c[nH]c2ccc(CS(=O)(=O)N3CCCC3)cc12 | inactive |
| BrCCCCCBr | inactive |
| C#C[C@]1(OC(C)=O)CC[C@H]2[C@@H]3CCC4=C/C(=N/O)CC[C@@H]4[C@H]3CC[C@@]21CC | active |
| COc1cccc(OC)c1C(=O)O | inactive |
| O=C1CCC(=O)N1CO | inactive |
| COC(=O)[C@@H](N)CS | inactive |
| CO[Si](CCCCl)(OC)OC | inactive |
| CCCCCCCCCCCCCCCCN | inactive |
| CCCC(C(=O)OCCN(CC)CC)(c1ccccc1)c1ccccc1 | inactive |
| C/C=C/c1ccc(OCC)c(O)c1 | inactive |
| NCC(O)CC(=O)O (configuration not stated) | inactive |
| CCCCCCCCOc1ccccc1C(=O)Nc1ccc(C(=O)OCC[N+](C)(CC)CC)cc1 | inactive |
| NCCCC[C@H](NC(=O)[C@@H]1CCCN1C(=O)[C@@H]1CSSC[C@H](N)C(=O)N[C@@H](Cc2ccc(O)cc2)C(=O)N[C@@H](Cc2ccccc2)C(=O)N[C@@H](CCC(N)=O)C(=O)N[C@@H](CC(N)=O)C(=O)N1)C(=O)NCC(N)=O | inactive |
| N[C@@H](CSSC[C@H](N)C(=O)O)C(=O)O | inactive |
| COc1ccccc1C=CC=O | inactive |
| O=S(=O)(O)Oc1ccc(C(c2ccc(OS(=O)(=O)O)cc2)c2ccccn2)cc1 | inactive |
| CCCCCCC | inactive |
| COc1cc(OC)cc(OC)c1 | inactive |
| CO[C@@H]1[C@@H](O[C@@H]2O[C@H](C)[C@@H](O[C@H]3C[C@@](C)(O)[C@@H](OC(=O)CC(C)C)[C@H](C)O3)[C@H](N(C)C)[C@H]2O)[C@@H](CC=O)C[C@@H](C)C(=O)/C=C/C2OC2C[C@@H](C)OC(=O)C[C@H]1OC(C)=O (some centres not stated) | inactive |
| CC(C)(C)CC(=O)OCC(=O)[C@@]12OC(C)(C)O[C@@H]1C[C@H]1[C@@H]3CCC4=CC(=O)C=C[C@]4(C)[C@@]3(F)[C@@H](O)C[C@@]12C | inactive |
| C=CC(=O)CCCCC | inactive |
